Measured CC50 at 48 h values are reported for all entries that follow.
Assay: Cytotoxicity against human THP-1 cells incubated for 48 hrs by MTS/PMS assay
Format: toxicity, cell-based

molecule: CC1CCC(C)C(N(C)N2CCN(c3nc(=O)c4cc(C(F)(F)F)cc([N+](=O)[O-])c4s3)CC2)C1 (stereo unspecified)
CC50 at 48 h: > 64 µg/mL
//
molecule: CO[C@H]1/C=C/O[C@@]2(C)Oc3c(C)c(O)c4c(O)c(c(/C=N/N5CCN(C)CC5)c(O)c4c3C2=O)NC(=O)/C(C)=C\C=C\[C@H](C)[C@H](O)[C@@H](C)[C@@H](O)[C@@H](C)[C@H](OC(C)=O)[C@@H]1C
CC50 at 48 h: > 64 µg/mL
//
molecule: CN(CC1CCC(F)(F)CC1)N1CCN(c2nc(=O)c3cc(C(F)(F)F)cc([N+](=O)[O-])c3s2)CC1
CC50 at 48 h: > 64 µg/mL
//
molecule: CC1CC(N(C)N2CCN(c3nc(=O)c4cc(C(F)(F)F)cc([N+](=O)[O-])c4s3)CC2)CC(C)(C)C1 (stereo unspecified)
CC50 at 48 h: > 64 µg/mL
//
molecule: O=c1nc(N2CCN(CC3CCCCC3)CC2)sc2c([N+](=O)[O-])cc(C(F)(F)F)cc12
CC50 at 48 h: > 64 µg/mL
//
molecule: CN(C1C2CC3CC(C2)CC1C3)N1CCN(c2nc(=O)c3cc(C(F)(F)F)cc([N+](=O)[O-])c3s2)CC1 (stereo unspecified)
CC50 at 48 h: > 64 µg/mL
//
molecule: CN(C1CCC(F)(F)CC1)N1CCN(c2nc(=O)c3cc(C(F)(F)F)cc([N+](=O)[O-])c3s2)CC1
CC50 at 48 h: > 64 µg/mL
//
molecule: CC1CCCCC1NN1CCN(c2nc(=O)c3cc(C(F)(F)F)cc([N+](=O)[O-])c3s2)CC1 (stereo unspecified)
CC50 at 48 h: 48.7 µg/mL
//
molecule: CON=C1CCC(N(C)N2CCN(c3nc(=O)c4cc(C(F)(F)F)cc([N+](=O)[O-])c4s3)CC2)CC1 (stereo unspecified)
CC50 at 48 h: > 64 µg/mL
//
molecule: O=c1nc(N2CCN(NC3CCCCC3)CC2)sc2c([N+](=O)[O-])cc(C(F)(F)F)cc12
CC50 at 48 h: > 64 µg/mL
//
molecule: CN(C1CCC(C)(C)CC1)N1CCN(c2nc(=O)c3cc(C(F)(F)F)cc([N+](=O)[O-])c3s2)CC1
CC50 at 48 h: > 64 µg/mL
